The reported measurements were obtained from patent US12448383B2.

# assay: GI S9 stability
# Format: in vitro ADME
# settings: human, s9, pH 7.4
Overview of reported half-life at 2 µM across a group of molecules:
readout-type: half-life at 2 µM

* COC(=O)OC[C@H]1O[C@@](C#N)(c2ccc3c(N)ncnn23)[C@H](O)[C@@H]1O | ≥ 13.2 h
* N#C[C@@]1(c2ccc3c(N)ncnn23)O[C@H](COC(=O)OC2CCOC2)[C@@H](O)[C@H]1O (stereo partly drawn) | ≥ 13.2 h
* COCCOC(=O)OC[C@H]1O[C@@](C#N)(c2ccc3c(N)ncnn23)[C@H](O)[C@@H]1O | ≥ 13.2 h

* * *

Each item that follows carries a reported logD.
# assay: physchem
readout-type: logD

- CC1(COC(=O)OC[C@H]2O[C@@](C#N)(c3ccc4c(N)ncnn34)[C@H](O)[C@@H]2O)CCCC1: 2.2
- C[C@@H](OC(=O)OC[C@H]1O[C@@](C#N)(c2ccc3c(N)ncnn23)[C@H](O)[C@@H]1O)[C@@H](C(=O)OC1CCOCC1)N(C)C: 1.3
- CC(C)(C)OP(=O)(OCOC(=O)OC[C@H]1O[C@@](C#N)(c2ccc3c(N)ncnn23)[C@H](O)[C@@H]1O)OC(C)(C)C: 1.7

* * *

# Test system: Caco-2 cells (clone C2BBe1)
# assay: CACO-2 permeability
# Assay type: in vitro ADME
# Set-up: unit not given here
# settings: basolateral to apical
# Procedure: Pre-plated Caco-2 cells (clone C2BBel) were obtained from Sigma-Aldrich, Inc. (Atlanta, GA). Cell monolayers were grown to confluence on collagen-coated, microporous, polycarbonate membranes in 24-well transwell plates for 21 days. […] After an initial equilibration with transport buffer, TEER values were read to test membrane integrity. […] Samples were analyzed by LC-MS/MS.
// classify: if (DM Caco2 B to A < 7) Met else Not met

• Cc1oc(=O)oc1COC(=O)OC[C@H]1O[C@@](C#N)(c2ccc3c(N)ncnn23)[C@H](O)[C@@H]1O [Compound 26] = Met
• N#C[C@@]1(c2ccc3c(N)ncnn23)O[C@H](COC(=O)Oc2ccccc2)[C@@H](O)[C@H]1O [Compound 7] = Not met
• CCC(C)(C)OC(=O)OC[C@H]1O[C@@](C#N)(c2ccc3c(N)ncnn23)[C@H](OC(=O)OC(C)(C)CC)[C@@H]1OC(=O)OC(C)(C)CC [Compound 60] = Met
• COC(=O)OC[C@H]1O[C@@](C#N)(c2ccc3c(N)ncnn23)[C@H](OC(=O)OC)[C@@H]1OC(=O)OC [Compound 93] = Not met
• CC1(COC(=O)OC[C@H]2O[C@@](C#N)(c3ccc4c(N)ncnn34)[C@H](O)[C@@H]2O)CC1 [Compound 114] = Not met
• CC(C)COC(=O)OC[C@H]1O[C@@](C#N)(c2ccc3c(N)ncnn23)[C@H](O)[C@@H]1O [Compound 1] = Met
• N#C[C@@]1(c2ccc3c(N)ncnn23)O[C@H](COC(=O)OCCCCC(=O)O)[C@@H](O)[C@H]1O [Compound 142] = Met
• N#C[C@@]1(c2ccc3c(N)ncnn23)O[C@H](COC(=O)OCCCCCC(=O)O)[C@@H](O)[C@H]1O [Compound 140] = Met
• CC12CCC(C1)C(C)(C)C2OC(=O)OC[C@H]1O[C@@](C#N)(c2ccc3c(N)ncnn23)[C@H](O)[C@@H]1O (mixture of isomers) [Compound 48] = Not met
• COC(C)(C)COC(=O)OC[C@H]1O[C@@](C#N)(c2ccc3c(N)ncnn23)[C@H](O)[C@@H]1O [Compound 54] = Met
• CC[C@H](C)OC(=O)OC[C@H]1O[C@@](C#N)(c2ccc3c(N)ncnn23)[C@H](O)[C@@H]1O [Compound 90] = Not met
• CC1(OC(=O)OC[C@H]2O[C@@](C#N)(c3ccc4c(N)ncnn34)[C@H](O)[C@@H]2O)CCCCCC1 [Compound 55] = Met
• CC(C)OC(=O)OC[C@H]1O[C@@](C#N)(c2ccc3c(N)ncnn23)[C@@H]2OC(c3ccccc3)O[C@@H]21 (stereo partly shown) [Compound 100] = Not met
• C=CCCOC(=O)O[C@H]1[C@@H](OC(=O)OCCC=C)[C@](C#N)(c2ccc3c(N)ncnn23)O[C@@H]1COC(=O)OC(C)C [Compound 136] = Met
• COCCOC(=O)OC[C@H]1O[C@@](C#N)(c2ccc3c(N)ncnn23)[C@H](O)[C@@H]1O [Compound 10] = Met
• CCOC(=O)[C@H](C)OC(=O)OC[C@H]1O[C@@](C#N)(c2ccc3c(N)ncnn23)[C@H](O)[C@@H]1O [Compound 97] = Met
• CCCCCCCCCCCCCCCCCCOC(=O)OC[C@H]1O[C@@](C#N)(c2ccc3c(N)ncnn23)[C@H](O)[C@@H]1O [Compound 126] = Met
• CC1(C)C2CCC1(C)C(OC(=O)OC[C@H]1O[C@@](C#N)(c3ccc4c(N)ncnn34)[C@H](O)[C@@H]1O)C2 (stereo partly shown) [Compound 71] = Not met
• COCC(C)(C)OC(=O)OC[C@H]1O[C@@](C#N)(c2ccc3c(N)ncnn23)[C@H](O)[C@@H]1O [Compound 96] = Met
